- subject of test: T1, GFP-9S library array, motif 4 ND N98D;D124T (synthetic construct, N98D;D124T)
- T1 chain: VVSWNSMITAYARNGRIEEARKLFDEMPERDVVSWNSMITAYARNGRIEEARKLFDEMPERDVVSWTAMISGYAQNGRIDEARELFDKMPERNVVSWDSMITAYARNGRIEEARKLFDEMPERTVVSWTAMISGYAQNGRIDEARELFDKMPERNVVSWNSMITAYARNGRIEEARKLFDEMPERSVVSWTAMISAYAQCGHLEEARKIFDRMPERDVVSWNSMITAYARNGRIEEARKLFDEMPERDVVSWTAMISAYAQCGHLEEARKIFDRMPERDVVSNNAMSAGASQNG
- method description: high-throughput RNA pulldown from lysate on Ni-NTA beads; HRP: 50 mM Tris pH 8, 150 mM NaCl, 1 mM beta-mercaptoethanol, 50 ug/ml BSA, 3 ug/ml yeast RNA, 0.5% heparin; ITC and FP: Tris pH 8, 200 mM KCl, 5% glycerol; MST: 50 mM Tris pH 8, 200 mM NaCl, 1 mM DTT, BSA, heparin, 0.05% Tween 20
- condition: tags: N-terminal His-eGFP; label: 5' Cy5
pKd: −log10 of the molar value.
property label: pKd

>>> result_number("AUUAGACGUGA (ssRNA) [Cy5-rpoA-G]")
6.98
>>> result_number("AUUACACGUGA (ssRNA) [Cy5-rpoA]")
6.91
